# EXPERIMENTAL DETAILS: Toxicity liver stage against HepG2, at 10uM
# Format: cell-based
# Parameters: test concentration 10 uM, cell line HepG2-A16-CD81EGFP
# CONDITION SET: human, HepG2-A16-CD81EGFP cells; read-out: INHIBITION
Below is a list of entries, each paired with its recorded cytotoxicity at 10 µM value.
Respond numerically; units are % and should not be typed.

Worked set:
| COMPOUND | VALUE OBSERVED |
| --- | --- |
| Cc1nc(CNc2ccccc2CCC(F)(F)F)cs1 | -8.47 |
| Cc1cnn(CCNCCCOc2ccccc2)c1 | -11.8 |

Now look at this entry.
Exercise: Can you look up the measured cytotoxicity at 10 µM of CC(=O)c1cn(CC(=O)NC(C(=O)O)C(C)C)c2ccccc12 (configuration not stated) for me?
Key: 0.415

###

cytotoxicity at 10 µM: recorded values
# EXPERIMENTAL DETAILS: Toxicity liver stage against HepG2, at 10uM
# Type: cell-based
# Design: test concentration 10 uM, cell line HepG2-A16-CD81EGFP
# CONDITION SET: human, HepG2-A16-CD81EGFP cells; read-out: INHIBITION
Provide the reading as a plain figure in %.

# example entries with known answers
| MOLECULE | UNIT ABBREV | VALUE OBSERVED |
| --- | --- | --- |
| CN(C)C(=O)CN1CCC(c2cccc(Cc3ccc(F)cc3)n2)CC1 | % | -22.3 |
| CCc1ccc2ncn(Cc3ncc[nH]3)c(=O)c2c1 | % | 11.1 |
| Nc1cccnc1N1CCC(c2ccccc2)CC1 | % | -5.2 |
| Cc1nn(C)c(C)c1-c1ccc(=O)n(C(C)C(=O)NC2CC2)n1 (centres undefined) | % | 0.0475 |
| O=C(CCCNc1ncccn1)N1CCCC(n2cccn2)C1 (centres undefined) | % | 7.34 |

Exercise: Reported cytotoxicity at 10 µM, molecule Cc1cnn(CCC(=O)N2CCN(c3ncccc3Cl)CC2)c1 : ____
Key: 2.41

Exercise: Item under review: CC(C)N1CCC(NCc2cccnc2N(C)Cc2ccccc2)CC1 . Reported cytotoxicity at 10 µM?
Key: 21

Exercise: Name the recorded cytotoxicity at 10 µM for COCCN1C(=O)CCC12CCC(NCc1ccc(OC)cc1)CC2 (centres undefined) .
Key: 11.5

Exercise: What value of measured cytotoxicity at 10 µM is listed for CCOc1ccc(C#N)cc1NCC(=O)Nc1cc(C)no1 ?
Key: -6.67

Exercise: Using the record for CCOc1ccccc1-n1c(-c2cn(CC)nc2C)n[nH]c1=O , report its cytotoxicity at 10 µM.
Key: 2.81

Exercise: Requested read-out: cytotoxicity at 10 µM. Entry: CCc1c(C)sc2c1c(N)nc(=O)n2CCN1CCOCC1
Key: 1.17

Exercise: # query: cytotoxicity at 10 µM of entry Cn1c(CCN2CCN(CCc3ccccc3)CC2)nc2ccccc21
Key: -43.7

Exercise: Look up cytotoxicity at 10 µM: CN(C)C(CNC(=O)CCNC(=O)OCC(F)(F)F)c1ccsc1 (centres undefined)
Key: -45.2

Exercise: Look up cytotoxicity at 10 µM for this molecule: CC1(C(=O)N2CCOCC2)CN(Cc2cccnc2)CCO1 (centres undefined)
Key: -9

Exercise: Any idea what cytotoxicity at 10 µM was measured for O=C1CC2(CNCCN(C(=O)Nc3ccccc3)C2)CN1 (centres undefined) ?
Key: 2.23

Exercise: Recorded cytotoxicity at 10 µM of CCn1cc(S(=O)(=O)NCC2(N3CCOCC3)CCCCC2)c(C)n1 , please.
Key: -27.5

Exercise: Item COCCNc1cc(-c2ccccc2C(N)=O)c2cc[nH]c2n1 has what recorded cytotoxicity at 10 µM?
Key: -2.32

Exercise: Given the entry O=C(c1ccncc1)N1C[C@H]2CC[C@@H](C1)N(S(=O)(=O)c1cccnc1)C2 , report its measured cytotoxicity at 10 µM.
Key: -3.51

Exercise: Quick one: cytotoxicity at 10 µM of CCc1ccc(C(=O)N(CC(F)(F)F)C2CCCOC2)o1 (centres undefined) ?
Key: -7.59

Exercise: Item under review: O=C(c1ccc(S(=O)(=O)NCc2ccon2)cc1)N1CCNCC1 . Reported cytotoxicity at 10 µM?
Key: 2.59

Exercise: // query cytotoxicity at 10 µM value for entry O=C([C@H]1C[C@H]2OCC[C@H]2N(C(=O)c2ccnnc2)C1)N1CCCCO1
Key: 4

Reference for the values: ChEMBL document CHEMBL4513216
